metric_name: melting point

CN(C)Cc1ccc(NCCCc2ccc(-c3ccc(Cl)cc3)cc2)cc1 = 85 to 90 °C
Oc1ccc(-c2ccc(CCCNc3ccc(CN4CCC(O)(C(F)(F)F)CC4)cc3)nn2)cc1 = 200 to 204 °C
CC1CCN(Cc2ccc(NCCCc3ccc(-c4ccc(Cl)cc4)cc3)cc2)CC1 = 69 to 71 °C
OC1(C(F)(F)F)CCN(Cc2ccc(NCCCc3ccc(-c4ccc(Cl)cc4)cc3)nc2)CC1 = 170 to 172 °C

Kindly consider the entry below.
Fill in: melting point of COc1ccc(-c2ccc(CCCNc3ccc4c(c3)CN(C)CC4)nn2)cc1 is ___ 130 to 133 °C

meta.source: patent US20070111981A1
